assayed_system: T1, human LAG3 expressed on cells (human, UniProt P18627 23-525)
T1 construct: whole, on cells
T1 sequence (looked up): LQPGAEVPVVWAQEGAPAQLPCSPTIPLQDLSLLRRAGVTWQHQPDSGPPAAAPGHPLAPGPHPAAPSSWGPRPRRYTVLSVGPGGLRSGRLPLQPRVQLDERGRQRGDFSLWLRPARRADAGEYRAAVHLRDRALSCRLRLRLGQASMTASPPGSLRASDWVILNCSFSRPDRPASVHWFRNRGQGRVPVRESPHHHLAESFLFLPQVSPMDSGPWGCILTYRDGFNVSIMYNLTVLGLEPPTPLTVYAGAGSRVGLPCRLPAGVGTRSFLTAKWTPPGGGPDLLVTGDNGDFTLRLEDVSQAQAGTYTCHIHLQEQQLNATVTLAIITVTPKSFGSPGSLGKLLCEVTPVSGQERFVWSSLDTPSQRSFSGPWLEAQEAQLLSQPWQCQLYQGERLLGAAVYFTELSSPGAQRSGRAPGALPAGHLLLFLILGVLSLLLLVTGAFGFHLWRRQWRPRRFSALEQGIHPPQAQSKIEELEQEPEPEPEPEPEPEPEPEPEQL
assay_protocol: cell ELISA, 293T-hLAG3 cells
recorded_endpoint: OD450 at 0.0411523 ug/ml

[[record]]
binder = "sdAb No. 17-H2 (VHH, Modified sdAb No. 17 (CDR1 DG to EG); not shown: Fc part implied by anti-human IgG1 Fc detection) VHH: QLQLVESGGGLVQPGGSLRLSCAASGLTLEGYAIGWFRQAPGKEREGLACISGSDGSTHYLDSVKGRFTISRDNGKNTMALQMNSLQFGDTAIYYCAARRGSCSGSWTYWGQGTQVTVSS"
value_reported = 0.458

[[record]]
binder = "sdAb No. 17-H4 (VHH, Modified sdAb No. 17 (CDR2 DG to EG); not shown: Fc part implied by anti-human IgG1 Fc detection) VHH: QLQLVESGGGLVQPGGSLRLSCAASGLTLDGYAIGWFRQAPGKEREGLACISGSEGSTHYLDSVKGRFTISRDNGKNTMALQMNSLQFGDTAIYYCAARRGSCSGSWTYWGQGTQVTVSS"
value_reported = 0.432

[[record]]
binder = "sdAb No. 27 (VHH, Fc of the tested form not described; also called sdAb 27; not shown: Fc part implied by anti-human Fc capture and anti-human IgG Fc detection) VHH: QVQLVESGGGLVQPGGSLRLSCAASGFTLDYYAIGWFRQAPGKEREGVSCIRSSDGSTYYADSVKGRFTISSDNTKNTVYLQMNSLKPEDTAVYYCATDRYSDCRGPYENWGQGTQVTVSS"
value_reported = 0.408

[[record]]
binder = "sdAb No. 27-H1 (VHH, Modified sdAb No. 27 (CDR2 DG to DA); not shown: Fc part implied by anti-human IgG1 Fc detection) VHH: QVQLVESGGGLVQPGGSLRLSCAASGFTLDYYAIGWFRQAPGKEREGVSCIRSSDASTYYADSVKGRFTISSDNTKNTVYLQMNSLKPEDTAVYYCATDRYSDCRGPYENWGQGTQVTVSS"
value_reported = 0.359


Values compiled from patent US20230303690A1.
